The reported measurements were obtained from patent US20240252641A1.

TARGET OR SYSTEM: T1, CD70 on cells (CHO-CD70, JVM-3, U266, Raji, THP-1, T cells) (human, UniProt P32970 1-193)
T1 construct: whole, on cells; also called cell-surface CD70
T1 sequence (looked up): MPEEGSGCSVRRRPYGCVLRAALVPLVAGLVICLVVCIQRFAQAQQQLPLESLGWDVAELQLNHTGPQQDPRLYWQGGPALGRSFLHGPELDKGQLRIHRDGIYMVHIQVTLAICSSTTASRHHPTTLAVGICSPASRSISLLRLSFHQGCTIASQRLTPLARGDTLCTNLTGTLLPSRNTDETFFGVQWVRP
ASSAY INFO: 1.25 µg/mL scFv on JVM-3 cells
Recorded cell binding, one value per entry.
Answer as a number with no unit attached.

52-TC7-VIII-C02 (scFv, His-tagged) scFv: QVQLLESGGGVVQPGRSLRLSCAASGFTFSSYGMHWVRQAPGKGLEWVAVISYDGSNKYYADSVKGRFTISRDNSKNTLYLQMNSLRAEDTAVYYCAKGAYYYGSVSGMDVWGQGTTVTVSSGGSGGSGGSGGSSYELTQPVSVSVALGQTARLTCAGNNIGSKNVHWYQQKPSQAPVLVIYNDNIRPNFGIPERFSGSNSGNTATLTISSAQAGDEADYYCQVWDSSTAEVFGGGTKLTVL : 8050
16-TC4-I-C11 (scFv, His-tagged) scFv: QVQLVQSGAEVKKPGSSVKVSCKASGGTFSSYAISWVRQAPGQGLEWMGWISAYNGNTNYAQKLQGRVTMTTDTSTSTAYMELRSLRSDDTAVYYCARVTPPGWLGNMDVWGKGTTVTVSSGGSGGSGGSGGSSYELMQSPSVSVAPGQTARITCGGRDIGSKSVHWYQQKPGQAPVLVVYDDSDRPSGIPERLSGSNFGNEATLTISRVEAGDEGDYFCQVWDSSTDVVFGGGTKVTVL : 103000
42-TC4-VII-G08 (scFv, His-tagged) scFv: QVQLVQSGGGVVQPGRSLRLSCAASGFTFSSYAMHWVRQAPGKGLEWVAVISYDGSNKYYADSVKGRFTISRDNSKNTLYLQMNSLRAEDTAVYYCARDLSYDYGFDYWGQGTLVTVSSGGSGGSGGSGGSSSELTQDPAVSVALGQTVRITCQGDSLRSYYASWYQQKPGQAPVLVIYGKNNRPSGIPDRFSGSSSGNTASLTITGAQAEDEADYYCNSRDSSGNHLVVFGGGTKVTVL : 33900
39-TC6-IV-B08 (scFv, His-tagged; also called 1885) scFv: QVQLVESGGGVVQPGGSLRLSCAASGFTFSSYAMHWVRQAPGKGLEWVAVISYDGSNKYYADSVKGRFTISRDNSKNTLYLQMNSLRAEDTAVYYCARDGHPYYYGMDVWGQGTTVTVSSGGSGGSGGSGGSQSALTQPASVSGSPGQSITISCTGTSSDVGDYNYVSWYQHHPGKAPKLMIYDVSNRPSGVSNRFSGSKSGNTASLTISGLQAEDEADYYCGSYTGSDTWVFGGGTKVTVL : 25300

Please find the next binder below.
// cell binding lookup, binder = 47-TC7-III-D10 (scFv, His-tagged) scFv: QVQLVQSGAEVKKPGASVKVSCKASGYTFTSYGISWVRQAPGQGLEWMGWISAYNGNTNYAQKLQGRVTMTTDTSTSTAYMELRSLRSDDTAVYYCARDSSSWYYYYGMDVWGQGTTVTVSSGGSGGSGGSGGSSYELTQPPSVSVSPGQTARISCSGDALPNQYAYWYQQKPGQAPVLVIYQDSERPSGIPERFSGSSSGTTVTLTISGVQAEDEADYYCQSADTYGTSWVFGGGTKLTVL , result: 34700
